pIC50: −log10 of the molar value.
Ok so here's the combined literature set: pIC50 for JNK3 (Homo sapiens, UniProt P53779).

[
  {
    "Molecule": "COc1ccc2c(c1)CC(C(=O)NCC(=O)N(CC(=O)NCCCCCCNC(=O)c1ccc3[nH]ncc3c1)CC(C)C)CO2 (stereo not shown)",
    "Reported Endpoint": "pIC50",
    "Reported Value": 5.50
  },
  {
    "Molecule": "Cn1cccc1-c1nc(-c2ccnc3[nH]ccc23)no1",
    "Reported Endpoint": "pIC50",
    "Reported Value": "≥ 5.00"
  },
  {
    "Molecule": "O=C(Cn1c(=O)ccc2c(C(F)(F)F)cccc21)Nc1scc(Br)c1-c1ncn[nH]1",
    "Reported Endpoint": "pIC50",
    "Reported Value": "> 7.00"
  }
]

Consider now this further molecule.
(Q) Value wanted: pIC50 (JNK3 (Homo sapiens, UniProt P53779)) of entry CS(=O)(=O)Nc1ccc(F)c(C(=O)c2c[nH]c3ncc(-c4ccccc4)cc23)c1F
(A) ≥ 5.00
